target desc: T. gondii ME49Luc in IFN-y HeLa, luciferase, 72 h
experimental details: T. gondii growth inhibition with IFN-gamma, dose response, cell-based, ME49Luc, HeLa, luciferase, 72 h (AID 1259418)
Inconclusive results are not listed. Active and inactive are the calls of the source.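 Rule for the calls: active = fitted half-maximal concentration of signal decrease at or below twice the sample's top tested concentration; inconclusive = flat curve between -70 and -30 percent, or poor fit; inactive = flat within 30 percent, signal rise, or potency above limit.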
Outcome (select one): 1 (active), -1 (inactive)

Field: outcome | Entry: CCC(=O)N1CC[C@@H]2[C@H]1c1cc(-c3ccc(C#N)cc3)ccc1N(C)[C@H]2CO
-1

Next entry: COc1ccc(Cl)cc1NC(=O)COc1nc(C)nc2ccccc12
1

Next entry: CCCCCCCCCCCCCCCC[N+](C)(C)C
1

Next entry: Cc1ccc(-c2coc(-c3ccc(NC(=O)c4cccs4)cc3)n2)c(C)c1
1

Next entry: CN1c2ccc(C3=CCCCC3)cc2[C@@H]2[C@@H](CCN2C(=O)c2ccc3c(c2)OCO3)[C@@H]1CO
1
